Every entry's value here was drawn from the nanobody polyreactivity screen of Harvey et al. (2022).

experiment: yeast display, Sf9 membrane polyspecificity reagent, FACS + sequencing; frameworks hold sequencing errors
property label: polyreactivity (PSR sort gate)

# count of solved cases: 6
QVQLVESGGGLVQAGGSLRLSCAASGNTFTWYTMGWYRQAPGKERELVAVMTSDGSTYYADSVKGRFTISRDNAKNTVSFQMNSLKPEDTAVYYCNRGVFDTFYYYPQVGFGYWGQGTQVTVSS :: low polyreactivity
QVQLVESGGGLVQAGGSLRLSCAASGSIFDSNAMGWYRQAPGKETELVASITSDGDTYYADSVKGRFTISRDNAKNTVYLQIKSVKPEDTAVYYCAAYVPYSGLDYWGQGTQVTVSS :: low polyreactivity
QVQLVESGGGLVQAGGSLRLSCAASGSIFRFYAMGWYRQAPGKERELVAAITSGGSTNYADSVKGRFTISRDNAKNTVYLQMNSLKPEDTAVYYCAAELVYFFIYDYWGKGTQVTVSS :: low polyreactivity
QVQLVESGGGLVQAGGSLSISCAASGLTFSYYAMGWYRQAPGKERELGAAIAGRTGRPYYADSVKGRFTISRDNAKNTVYLQMNSLKPEDTAVFYSAAGYTFSRYDDDYWGQGTQVTVSS :: low polyreactivity
QVQLVESGGGLVQAGGSLRLSCAASGSIFPFYAMGWFRQAPGKERELVAAISWSGGSTYYADSVKGRFTISRDNAKNTVYLQMNSLKPEDTAVYYCNRADGYSFSLNRSDYWGQGTQVTVSS :: low polyreactivity
QVQLVESGGGLVQAGGSLRLSCAASGFIFWDYAMGLYRQAPGKERELVAAISDSGGDTYYADSVKGRFTISRDNAKNTVYFQINSLKPEDTAVYYCSADVELWVFRGQQYDYWGQGTQVTVSS :: low polyreactivity

For reference, reported polyreactivity (PSR sort gate) for QVQLVESGGGLVQAGGSLRLSCAASGSISYTYAMGWYRQAPGKERELVAAISYSDGITYYADSVKGRFTISRDIAKNTVYLQMNSLKPEDTAVYYCAVEGVYPYYDQSEYDYWGQGTQVTVSS stands at high polyreactivity

For reference, reported polyreactivity (PSR sort gate) for QVQLVESGGGLVQAGGSHRLSCAASGFTFWDYAMGWYRKAPGKEREMVAAITSRGTRTYYADSVKGRFTISRDNAKNTVYLQMNSLKPEDTDVYYCATAIPDPDYIHNYWGQGTQVTVSS stands at high polyreactivity

For reference, reported polyreactivity (PSR sort gate) for QVQLVESVGGLDQAGGSLPVSCAASGLTFTGYTMGWYRQAPWKERELVATISGSGGNTDYADSVKARFTISRDKAKNTVDLQMNSLKPEDTAVYYCASRRSGPLVLYYYWGQGTQVTVSS stands at low polyreactivity

For reference, reported polyreactivity (PSR sort gate) for QVQLVESGGGLVQAGGSLRLSCAASGRIFPGYAMGWYRPAPGKERELVAAISKSGVSTYYADSVKGRFTISCDNAKNTVYLQMNSLKPEDTAVYYCAAVSYSYFSRGYRTFQLAYWGQGTQVTVSS stands at high polyreactivity

For reference, reported polyreactivity (PSR sort gate) for QVQLVESGGGLVQAGGSLRLSCAASGSIFITYAMGWYRQAPGKERELVAAIRDSGDRTYYADSVKGRFTISRDNAKKTVYLQMNSLKPEDTAVYYCAARIWTGRGRKLGYGYDYWGQGTQVTVSS stands at low polyreactivity

For reference, reported polyreactivity (PSR sort gate) for QVQLEESGGGLVQAGGSLRLSCAASGFTFTDYALGWYRQAPGTERELVAVITYDSTYYADPVKGRFTISRDNAKNTVYLQMNSLNPEDTAVYFCAADSYDWGDFDYWGQGTQVTVSS stands at low polyreactivity

For reference, reported polyreactivity (PSR sort gate) for QVQLVDSGGGLVQAGGSLRLSCAASGRTFPSYGMGWYRQAPGKERELVAPITGGGSTYYADSVKGRFTISRDNAKNTVYLQINSLKPEDTAVYYCAKRPYYNRHYHYRSKYDYWGLGTQVTVSS stands at high polyreactivity

For reference, reported polyreactivity (PSR sort gate) for QVQLVESGGGLVQAGGSLRLSCAASGSTFWYYAMGWYRQAPGKERELVAAITSSGSTYYADSVKGRFTISRDNAKNTVYLQMNRLKPEDTAVYYCAAEQWYCYGSYDYWGQVTQVTVSS stands at high polyreactivity

For reference, reported polyreactivity (PSR sort gate) for QVQRVESGGGLVQAGGSLRLSCAASGRNSQFYDMGWYRQAPGKERELVATISGGASTNYADSVKGRFTISRDNAKNTVYLQMNSLKPEDTAVYYCARAGRSWDTLYKYYLEHDYWGQGTQVTVSS stands at low polyreactivity

For reference, reported polyreactivity (PSR sort gate) for QVQLVESGGGLVQAGGSLRLSCAASGFTFDVYAMGWYRQAPGKERELVAAIDSGGSTNYADSVKGRFTISRDNAKNTVYLQMNSLKPEDTAVYYCAAPFVGSVVIRRWDEYDYWGQGTQVTVSS stands at low polyreactivity

For reference, reported polyreactivity (PSR sort gate) for QVHLVESGVGLVQAGVSHRLSCAASGSTYRGYAMGWYRQAPGKERELVAPITYISDSTYYADSVKGRFTISRDNAKNTVYLQMNSLKPEDSAVYYCNDYYDGDWRYTSQETGDNWGQGTQVTVSS stands at low polyreactivity

For reference, reported polyreactivity (PSR sort gate) for QVQLVESGGGLVQAGGSLRLSCAASGSIFGSNAMGWYRQAPGKERELVASITSSGGSTHYADSVKGRFTISRDNAKNTVYLQMNSLKPEDTAVYYCATRAYGYYRWLYDYWGQGTQVTVSS stands at low polyreactivity

For reference, reported polyreactivity (PSR sort gate) for QVQLVESGGGLVQAGGSLRLSCAASGTTFVIYAKGWYRQAPGKERELVASISGSGGSTFYADSVKGRFTISRDNAKITVYLQMNSLKPEDTAVYYCAAAVGVGRSGGTYDYWGQGTQVTVSS stands at low polyreactivity

For reference, reported polyreactivity (PSR sort gate) for QVQLVESGGGLVQAGGSLRLSCAASGSIFYGNTMGWYRQAPGKERELVAAISSGGGSTYYADSVKGRFTISRDNAKNTFYSKMNSMKPEETAVYYCAKRTYKQASGYWYDSWGQGTKVTVSS stands at high polyreactivity

For reference, reported polyreactivity (PSR sort gate) for QVQLVETGGGLVQAGGSLRLSCAPSGRTFYYYAMGWYRQAPGKERELVAAISYSVGSTYYADSVKGRFTISRDNAKTTVYLQMNSLKPEDTEVYYCAASRASSSRGEYYYWGQGTLVTVSS stands at low polyreactivity
